# Tested on: UACC-257
# test.description: NCI tumour cell line growth inhibition, 48 h
Active and inactive are the calls of the source. Cut-off read from the data, not from the text of the source: active = GI50 up to about 1.1 µM and inactive = higher.
Assign GI50 to each entry below.

Take a look at these entries with their results.
>  <molecule>
Cc1ccc2c(c1)C(=O)/C(=C\c1ccccc1)CCS2(=O)=O

>  <GI50>
12.3 µM (inactive)

$$$$
>  <molecule>
Cc1nc2ccc(Cl)cc2c2c1CCO2

>  <GI50>
> 100 µM (inactive)

$$$$
>  <molecule>
CC(C)c1ccccc1[S+]([O-])c1ccccc1C(C)(C)O (stereo not given)

>  <GI50>
> 100 µM (inactive)

$$$$
>  <molecule>
OC1(c2ccccc2)CCN(Cc2c[nH]c3ccccc23)CC1

>  <GI50>
18.3 µM (inactive)

$$$$

# ---- query molecule ----
The value of GI50 measured for the molecule "CCOC(=O)C1=NN(c2ccc([N+](=O)[O-])cc2)[C@@]2(C)C[C@]3(c4ccccc4)N(c4ccc([N+](=O)[O-])cc4)N=C(C(=O)OCC)N3c3ccccc3N12" turned out to be > 100 µM (inactive)

* * *

Assign GI50 to each entry below.
# Test system: U-251
# test.description: NCI tumour cell line growth inhibition, 48 h
Calls of active or inactive are those of the source. Rule as the data show it: active = GI50 up to about 1.1 µM and inactive = higher.

>  <compound>
O=[N+]([O-])c1cc2oc(COc3ccccc3)nc2cc1Cl

>  <reported.measurement>
22.8 µM (inactive)

$$$$
>  <compound>
COC(=O)C(=O)C(C(=O)C(=O)Nc1cc([N+](=O)[O-])ccc1[N+](=O)[O-])c1nc2ccc(C(=O)c3ccccc3)cc2nc1O (stereo unspecified)

>  <reported.measurement>
33.4 µM (inactive)

$$$$
>  <compound>
N#Cc1nc(C#N)c(N)[nH]1

>  <reported.measurement>
> 100 µM (inactive)

$$$$
>  <compound>
N#C/C(=C\c1ccccc1Br)C(=O)c1ccccc1

>  <reported.measurement>
> 48.3 µM (inactive)

$$$$
>  <compound>
O=C(O)C(C1NCCS1)N1C(=O)c2ccccc2C1=O (stereo unspecified)

>  <reported.measurement>
> 100 µM (inactive)

$$$$

The value of GI50 measured for the compound "CC1=C(O)C(=O)C2=C(C1=O)[C@@H]([C@@H](C)C/C=C/C(C)(C)O)CC[C@@H]2C" turned out to be 52.7 µM (inactive)

* * *

# Test system: T47D
# test.description: NCI tumour cell line growth inhibition, 48 h
Active and inactive are the calls of the source. Rule as the data show it: active = GI50 up to about 1.1 µM and inactive = higher.
metric: GI50

Below is a list of compounds. For each, state its recorded GI50.
1. CSc1c(C#N)c(N)nc2c(/N=N\c3ccc(Br)cc3)c(N)nn12
2. CC(C)(CCCCC(C)(C)NCC1COc2ccccc2O1)NCC1COc2ccccc2O1 (stereo not given)
3. CC1(C)N=C(N)N=C(N)N1c1ccc(OCC(=O)Nc2cccc(S(=O)(=O)F)c2)c(Cl)c1
4. COc1ccccc1-c1cc(=O)c2ccc(OC)c(OC)c2o1
5. O=C(NCCCN(CCCCN(CCCNC(=O)C(F)(F)F)CCCc1ccccc1)CCCc1ccccc1)C(F)(F)F

2 µM (inactive)
7.83 µM (inactive)
27.2 µM (inactive)
19.3 µM (inactive)
1.85 µM (inactive)

* * *

# Test system: EKVX
# test.description: NCI tumour cell line growth inhibition, 48 h
Calls of active or inactive are those of the source. No stated cut-off is given here; in the data, active = GI50 up to about 1.1 µM and inactive = higher.
metric: GI50

>  <molecule>
O=C1OC2c3ccccc3C(=O)C2(c2ccccc2)N1c1ccccc1 (configuration not stated)

>  <metric>
GI50

>  <reported.measurement>
> 200 µM (inactive)

$$$$
>  <molecule>
CCOc1ccc(C(CN2CCOCC2)C(C)=O)cc1OC (configuration not stated)

>  <metric>
GI50

>  <reported.measurement>
22.6 µM (inactive)

$$$$
>  <molecule>
COc1cc2c(cc1OC)-c1cc3ccccc3c[n+]1CC2

>  <metric>
GI50

>  <reported.measurement>
> 100 µM (inactive)

$$$$

Below is a list of molecules. For each, state its recorded GI50.
1. CC1(C)CNC(c2ccc3c(c2)Cc2cc(C4=NC(C)(C)CN4)ccc2-3)=N1
2. Clc1ccc(Cc2nc3ccccc3nc2-c2cccc(Cl)c2)cc1
3. COc1ccccc1-c1cc(=O)c2ccc(OC)c(OC)c2o1
4. Cc1n[nH]c(=O)n1N1C(=O)c2ccccc2C1=O
5. CC1=CC(C)C(O)C(C)/C=C\C(O)C/C=C(/C)C(=O)CC(O)C(C)\C=C/C=C\C=C/C(=O)NC2=C(O)C(=O)c3c(cc(C)c(O)c3C1=O)C2=O (configuration not stated)

1: 60 µM (inactive); 2: 17.5 µM (inactive); 3: 58.7 µM (inactive); 4: > 100 µM (inactive); 5: > 100 µM (inactive)

Below is a list of molecules. For each, state its recorded GI50.
1. Cc1cc2c(C)n(Cc3ccc(Cl)cc3Cl)nc2c(C#N)c1C
2. CCN1c2cc(Br)cc3[nH]c(=O)n(c23)CCC1C (configuration not stated)
3. CCC(C)Cn1c(C)nc2c1C(=O)c1ccccc1C2=O (configuration not stated)
4. CN(c1ccc(Cl)cc1)S(=O)(=O)c1ccccc1
5. CCCCCCCCCCCNC=O

["57.1 µM (inactive)", "1.43 µM (inactive)", "31.9 µM (inactive)", "37.6 µM (inactive)", "52.8 µM (inactive)"]

* * *

Assign GI50 to each entry below.
# Tested on: MDA-N
# test.description: NCI tumour cell line growth inhibition, 48 h
Activity calls are given as the source filed them. Rule as the data show it: active = GI50 up to about 1.1 µM and inactive = higher.

>  <compound>
O[C@@]12Cc3c([nH]c4ccccc34)[C@@H]3Oc4cccc5c4[C@@]31CCN(CC1CC1)[C@@H]2C5

>  <GI50>
19.6 µM (inactive)

$$$$

Below is a list of compounds. For each, state its recorded GI50.
1. CCCCc1ccc(C#CC#Cc2ccc(CCCC)s2)s1
2. COc1cc(/C=N/N=C2NCCCCN2)ccc1O
3. COC1=CC(=O)N(C)C(O)C1(C#N)OC1OC(CO)C(O)C(O)C1O (centres undefined)
4. COC(=O)c1cc2c(cc1CC1Cc3cc4c(cc3C1=O)CCC4)CCC2 (centres undefined)
5. OC1[C@H](O)CN(OCc2ccccc2)C[C@@H]1O (some centres undefined)
6. CC(C)(C)C1CCC2c3c([nH]c4ccccc34)C3C(=O)N(c4cccc([N+](=O)[O-])c4)C(=O)C3C2C1 (centres undefined)

1. > 100 µM (inactive)
2. > 100 µM (inactive)
3. > 100 µM (inactive)
4. 18.2 µM (inactive)
5. > 100 µM (inactive)
6. 18.2 µM (inactive)

Below is a list of compounds. For each, state its recorded GI50.
1. O=[N+]([O-])c1ccc(CSc2nn(Cc3ccc([N+](=O)[O-])cc3)cc3ncnc2-3)cc1
2. CC[C@]12C=CCN3CC[C@@]4(c5cc(Br)c(OC)cc5N(C)[C@H]4[C@@](O)(C(=O)NC(Cc4c[nH]c5ccccc45)C(=O)OC)[C@@H]1O)[C@@H]32 (some centres undefined)

1: 33 µM (inactive); 2: 23.3 µM (inactive)

* * *

Assign GI50 to each entry below.
# Tested on: SF-295
# test.description: NCI tumour cell line growth inhibition, 48 h
The source made the active and inactive calls. Rule as the data show it: active = GI50 up to about 1.1 µM and inactive = higher.

Take a look at these entries with their results.
>  <compound>
CC(C)(C)OC(=O)c1ccc(NCC2=CC(=O)C=CC2=O)cc1

>  <metric>
GI50

>  <reported.measurement>
23 µM (inactive)

$$$$
>  <compound>
O=Cc1ccc2c(c1)CC1(C2)Cc2ccc3c(c2C1)CCC3 (centres undefined)

>  <metric>
GI50

>  <reported.measurement>
5.85 µM (inactive)

$$$$
>  <compound>
CC1(C)O[C@@H](C[C@]2(C#N)C[C@H](CCl)OC(C)(C)O2)C[C@@H](C#N)O1

>  <metric>
GI50

>  <reported.measurement>
> 100 µM (inactive)

$$$$
>  <compound>
CN1CCN(c2ccc3[nH]c(-c4ccc5[nH]c(-c6ccc(N(C)CCCl)cc6)nc5c4)nc3c2)CC1

>  <metric>
GI50

>  <reported.measurement>
1.76 µM (inactive)

$$$$

Below is a list of compounds. For each, state its recorded GI50.
1. Cc1ccc2c(O)c3c(cc2c1)C(=O)c1c2c(cc(O)c1C3=O)C1(C)OC(O2)C(O)C(N(C)C)C1O (centres undefined)
2. Cc1c(/C=N\NC(=S)N2CCN(C(=S)N/N=C\c3c(C)n(C)n(-c4ccccc4)c3=O)CC2)c(=O)n(-c2ccccc2)n1C
3. Cc1cc(C)n(-c2c(O)ccc(O)c2-n2nc(C)cc2C)n1

["1.09 µM (active)", "28.4 µM (inactive)", "81.3 µM (inactive)"]

Below is a list of compounds. For each, state its recorded GI50.
1. CN/N=C(\C(=O)Nc1ccc(C(F)(F)F)cc1[N+](=O)[O-])C(c1cnc2ccc([N+](=O)[O-])cc2n1)[N+](=O)[O-] (centres undefined)
2. COC(=O)C(C)(C)OCc1ccc(C2NC(=O)N(c3cccc(Cl)c3)C(=O)N2c2cccc(Cl)c2)cc1 (centres undefined)

1: 37.7 µM (inactive); 2: 31 µM (inactive)
